# assay_protocol: Particle size and polydispersity index of nanoparticle compositions (Zetasizer Nano ZS)
# Type: physicochemical
# measurement_parameters: Table 1A; lipid:DSPC:cholesterol:PEG-DMG 50:10:38.5:1.5 mol %
outcome_measure: Size (nm)
State the answer as a number, implicitly in nm.

Task: Identify measured Size (nm) associated with CCCCCCCCCOC(=O)CCCCCCCN(CCCCCCCC(=O)OC(CCCCCCCC)CCCCCCCC)CCN1CCN(C)CC1 [Compound 101]
Result: 91.7

Task: Identify measured Size (nm) associated with CCCCCCCCC(CC)OC(=O)CCCCCN(CCO)CCCCCCCC(=O)OC(CCCCCCCC)CCCCCCCC (stereo not shown) [Compound 75]
Result: 92.1

Task: Identify measured Size (nm) associated with CCCCCCCCC(CCCCCCCC)OC(=O)CCCCCCCN(CCO)CCCC(=O)OCC1CC1CCCCCC (stereo not shown) [Compound 55]
Result: 91.6

Task: Identify measured Size (nm) associated with CCCCCCCCCOC(=O)CCCCCCCN(CCCCCCCC(=O)OC(CCCCCCCC)CCCCCCCC)CCCNc1c(N(C)C)c(=O)c1=O [Compound 169]
Result: 87.4

* * *

Overview of reported % EE across a group of compounds:
# assay_protocol: Encapsulation efficiency of RNA (QUANT-IT RIBOGREEN RNA assay)
# Format: physicochemical
# measurement_parameters: Table 1E; compositions for subcutaneous administration
State the answer as a number, implicitly in %.

| compound | units_label | % EE |
| --- | --- | --- |
| CCCCCCCCCOC(=O)CCCCCCCN(CCCCCCCC(=O)OC(CCCCCCCC)CCCCCCCC)CCCNS(C)(=O)=O [Compound 109] | % | 98 |

Task: Identify measured % EE associated with CCCC/C=C\CCC(CC/C=C\CCCC)OC(=O)CCCCCCCN(CCO)CCCCCC(=O)OCCCCCCCCCCC [Compound 61]
Result: 96

Task: Identify measured % EE associated with CCCCCCCCCOC(=O)CCCCCCCN(CCCO)CCCCCCCC(=O)OC(CCCCCCCC)CCCCCCCC [Compound 19]
Result: 93

* * *

# assay_protocol: Encapsulation efficiency of RNA (QUANT-IT RIBOGREEN RNA assay)
# Type: physicochemical
# measurement_parameters: Table 1A
# Source text: For nanoparticle compositions including an RNA, a QUANT-IT™ RIBOGREEN® RNA assay (Invitrogen Corporation Carlsbad, CA) can be used to evaluate the encapsulation of an RNA by the nanoparticle composition. […] The fluorescence intensity can be measured using a fluorescence plate reader (Wallac Victor 1420 Multilabel Counter; Perkin Elmer, Waltham, MA) at an excitation wavelength of, for example, about 480 nm and an emission wavelength of, for example, about 520 nm. […]
outcome_measure: EE (%)
State the answer as a number, implicitly in %.

Consider the worked cases shown below.
| sample_smiles | EE (%) |
| --- | --- |
| CCCCCCCCCCCCCCN(CCO)CCCCCCCC(=O)OC(CCCCCCCC)CCCCCCCC | 93.88 |
| CCCCCCCCCOC(=O)CCCCCCCN(CCCCCCCC(=O)OC(CCCCCCCC)CCCCCCCC)CCCNC(=O)COC | 94.7 |

API: the following record is the query input.
Task: Identify measured EE (%) associated with CCCCCCCCCOC(=O)CCCCCCCN(CCCCCCCC(=O)OC(CCCCCCCC)CCCCCCCC)CCCN/C(=N/[N+](=O)[O-])NC
Result: 97.65

The measured values listed here are drawn from patent US12263248B2.
